TESTED TARGET: aiPLA2 activity of recombinant human Prdx6 (Homo sapiens, UniProt P30041)
Sequence (P30041 1-224): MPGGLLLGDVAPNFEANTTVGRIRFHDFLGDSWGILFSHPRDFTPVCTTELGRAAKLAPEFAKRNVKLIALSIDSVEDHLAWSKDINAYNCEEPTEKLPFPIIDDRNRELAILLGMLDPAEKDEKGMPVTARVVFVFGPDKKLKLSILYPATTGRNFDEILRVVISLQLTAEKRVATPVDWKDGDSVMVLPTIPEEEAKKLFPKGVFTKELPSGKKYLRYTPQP
ASSAY DETAILS: aiPLA2 (PLA2) activity of recombinant human Prdx6 in vitro, 3H-DPPC liposome substrate
Assay type: biochemical
TEST PARAMETERS: peptides deleted from C-terminus of 16-aa rat-derived SP-A peptide, and scrambled peptide; no-peptide control 94.8; one assay done in duplicate
OBSERVED PROPERTY: Activity (aiPLA2 of recombinant hPrdx6), deletion from C-term (nmol/min/mg Prot.)

In the examples that follow, each entry is paired with its recorded Activity (aiPLA2 of recombinant hPrdx6), deletion from C-term.
{"columns": ["PRIMARY SEQUENCE", "MEASURED RESULT"],
 "data": [
  ["DEELQTEL [8-aa C-terminal deletion of rat 16-aa peptide]", 93.6],
  ["LELDEEITEYQKQLHI [Scrambled peptide, scrambled 16-aa control peptide, reference compound]", 93.5],
  ["ELYEIKHQI [9-aa peptide lacking the C-terminal Leu]", 89.6]
]}

(1) DEELQTELYEIKHQ [14-aa C-terminal deletion of rat 16-aa peptide]
(2) DEELQTELYEIKHQIL
q: Please let me know which one, 1 or 2 , has a lower measured Activity (aiPLA2 of recombinant hPrdx6), deletion from C-term value. Lab note: record the label of whichever item you select.
a: 2
(2: 32.0 nmol/min/mg Prot., 1: 102 nmol/min/mg Prot.)
